- testSystem: Neuropilin-1 (Homo sapiens)
- experimentalProtocol: Displacement of […] from NRP1 b1 domain by cell-free assay
assayEndpoint: pIC50
# pIC50: negative log10 of molar concentration; output just the value

Lookup: Entry `N=C(N)NCCC[C@H](NC(=O)c1sccc1NS(=O)(=O)c1cccc2nsnc12)C(=O)O` has what pIC50?
Found: 5.52

* * *

- testSystem: Neuropilin-1 (Homo sapiens, UniProt O14786)
- Sequence (O14786 whole entry, the tested form may be a part): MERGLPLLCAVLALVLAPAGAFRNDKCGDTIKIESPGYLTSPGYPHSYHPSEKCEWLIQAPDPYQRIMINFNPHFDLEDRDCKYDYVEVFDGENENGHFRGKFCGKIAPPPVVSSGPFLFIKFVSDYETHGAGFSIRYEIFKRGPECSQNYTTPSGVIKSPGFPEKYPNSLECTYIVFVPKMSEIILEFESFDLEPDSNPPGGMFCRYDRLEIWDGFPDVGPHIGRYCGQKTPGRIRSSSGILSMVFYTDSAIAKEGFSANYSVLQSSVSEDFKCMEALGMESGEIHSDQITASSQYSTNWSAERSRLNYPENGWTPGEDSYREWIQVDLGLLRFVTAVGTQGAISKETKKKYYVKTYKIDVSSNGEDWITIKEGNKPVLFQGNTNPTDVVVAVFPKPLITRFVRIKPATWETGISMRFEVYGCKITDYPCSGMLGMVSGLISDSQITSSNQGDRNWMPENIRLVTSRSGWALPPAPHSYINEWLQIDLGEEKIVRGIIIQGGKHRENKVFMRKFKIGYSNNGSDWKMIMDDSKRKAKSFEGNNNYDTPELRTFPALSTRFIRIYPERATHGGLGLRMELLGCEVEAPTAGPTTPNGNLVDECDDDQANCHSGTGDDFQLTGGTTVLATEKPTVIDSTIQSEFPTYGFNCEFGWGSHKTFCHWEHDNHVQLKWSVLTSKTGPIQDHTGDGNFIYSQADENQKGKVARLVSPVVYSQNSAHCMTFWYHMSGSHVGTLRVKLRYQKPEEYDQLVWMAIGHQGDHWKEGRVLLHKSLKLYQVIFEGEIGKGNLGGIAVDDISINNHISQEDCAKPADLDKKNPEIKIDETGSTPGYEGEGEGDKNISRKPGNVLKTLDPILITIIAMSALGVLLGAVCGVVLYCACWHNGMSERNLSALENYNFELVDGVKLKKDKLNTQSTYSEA
- experimentalProtocol: Displacement of [125I]VEGF-A from human NRP1 expressed in pig aortic endothelial cells at 100 uM
- Format: cell-based
- testConditions: Endothelial cell
Where a SMILES comes first, the peptide text is derived from it.
Measured Activity, listed per entry.
Numeric only. Scale: %

These solved cases illustrate the format of a correct answer.
[
  {
    "molecule": "Cc1nc(S(=O)(=O)Nc2ccsc2C(=O)N[C@@H](CCCNC(=N)N)C(=O)O)cn1C",
    "testSystem": "Neuropilin-1 (Homo sapiens, UniProt O14786)",
    "val": 88
  },
  {
    "molecule": "N=C(N)NCCC[C@H](NC(=O)[C@H](Cc1ccccc1)NC(=O)[C@@H]1CCCN1C(=O)[C@@H](N)CCCCN)C(=O)O (H-KPFR-OH)",
    "testSystem": "Neuropilin-1 (Homo sapiens, UniProt O14786)",
    "val": 63
  }
]

Lookup: Entry N=C(N)NCCC[C@H](NC(=O)[C@@H]1CCCN1C(=O)[C@@H]1CCCN1C(=O)[C@@H](N)CCCCN)C(=O)O (H-KPPR-OH) has what Activity?
Found: 96

Lookup: Entry `N=C(N)NCCC[C@H](NC(=O)c1sccc1NS(=O)(=O)c1cccc(N)c1)C(=O)O` has what Activity?
Found: 84

Lookup: Entry `Cc1nn(C)c(Cl)c1CNc1cccc(S(=O)(=O)Nc2ccsc2C(=O)N[C@@H](CCCNC(=N)N)C(=O)O)c1` has what Activity?
Found: 88
